Consider the following molecules and their measured IC50 readings.
- experimentalSystem: recombinant human MAO-A (monoamine oxidase-A) (Homo sapiens, UniProt P21397)
- Construct: purchased Sigma-Aldrich
- Sequence (P21397 1-527): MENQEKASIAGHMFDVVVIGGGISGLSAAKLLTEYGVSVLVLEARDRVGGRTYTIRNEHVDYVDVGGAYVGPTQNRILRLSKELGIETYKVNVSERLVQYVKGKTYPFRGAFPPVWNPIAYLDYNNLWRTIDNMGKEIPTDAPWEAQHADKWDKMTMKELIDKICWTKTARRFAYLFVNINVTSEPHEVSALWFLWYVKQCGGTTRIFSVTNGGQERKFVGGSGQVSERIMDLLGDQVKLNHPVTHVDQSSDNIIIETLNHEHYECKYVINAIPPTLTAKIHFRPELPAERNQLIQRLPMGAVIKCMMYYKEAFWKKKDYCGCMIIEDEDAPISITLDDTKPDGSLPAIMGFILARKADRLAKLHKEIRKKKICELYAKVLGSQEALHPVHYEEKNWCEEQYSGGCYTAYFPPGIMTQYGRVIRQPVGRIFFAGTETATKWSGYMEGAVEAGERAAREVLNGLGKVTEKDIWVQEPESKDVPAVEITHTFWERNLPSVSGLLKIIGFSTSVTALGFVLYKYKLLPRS
- protocolNotes: Activity evaluation on recombinant human MAO-A (Amplex Red/HRP-coupled assay, 0.5 mM tyramine substrate)
- Format: biochemical
- conditionDescription: 0.5 mM tyramine, read-out: Inhibitory Activity (IC50, nM) MAO-A
Counter-ions that a name gives are not always drawn.

In the examples that follow, each entry is paired with its recorded IC50.
CC(=O)N1CCN(c2ccc(-c3ccc(Cn4cnn(CC(CN)=C(F)F)c4=O)s3)cc2)CC1 [Example 108, Trifluoroacetate] | > 10000 nM
Cc1cc(-c2ccc(N3CCNCC3)cc2)sc1Cn1cnn(CC(CN)=C(F)F)c1=O [Example 155, Ditrifluoroacetate] | > 100000 nM

Given NCC(Cn1ncn(Cc2ccc(-c3cnc4c(c3)CCCN4)s2)c1=O)=C(F)F [Example 145, Ditrifluoroacetate] , state its recorded IC50.
> 100000 nM

Given COCCNc1ncc(-c2ccc(Cn3cnn(CC(CN)=C(F)F)c3=O)s2)cn1 [Example 118, Trifluoroacetate] , state its recorded IC50.
> 100000 nM

* * *

- experimentalSystem: recombinant human MAO-B (monoamine oxidase-B) (Homo sapiens)
- Construct: purchased Sigma-Aldrich
- protocolNotes: Activity evaluation on recombinant human MAO-B (Amplex Red/HRP-coupled assay, 1 mM benzylamine substrate)
- Format: biochemical
- conditionDescription: 1 mM benzylamine, read-out: Inhibitory Activity (IC50, nM) MAO-B
Structures can show the parent of a compound that is named as a salt.
Consider the following compounds and their measured IC50 readings.

COCCNc1ncc(-c2ccc(Cn3cnn(CC(CN)=C(F)F)c3=O)s2)cn1 [Example 118, Trifluoroacetate] | > 100000 nM
NCC(Cn1ncn(-c2cccc(Br)n2)c1=O)=C(F)F [Example 8, Trifluoroacetate] | > 100000 nM
NCC(Cn1ncn(Cc2ccc(-c3ccc(C(=O)N4CCOCC4)cc3)s2)c1=O)=C(F)F [Example 109] | > 100000 nM

Given NCC(Cn1ncn(-c2cccc(-c3ccc(C(F)(F)F)nc3)c2)c1=O)=C(F)F [Example 19, Trifluoroacetate] , state its recorded IC50.
> 10000 nM

* * *

Consider the following compounds and their measured log10(IC50) readings.
- experimentalSystem: recombinant human DAO (diamine oxidase) (Homo sapiens, UniProt P19801)
- Construct: purchased R&D systems
- Sequence (P19801 20-751): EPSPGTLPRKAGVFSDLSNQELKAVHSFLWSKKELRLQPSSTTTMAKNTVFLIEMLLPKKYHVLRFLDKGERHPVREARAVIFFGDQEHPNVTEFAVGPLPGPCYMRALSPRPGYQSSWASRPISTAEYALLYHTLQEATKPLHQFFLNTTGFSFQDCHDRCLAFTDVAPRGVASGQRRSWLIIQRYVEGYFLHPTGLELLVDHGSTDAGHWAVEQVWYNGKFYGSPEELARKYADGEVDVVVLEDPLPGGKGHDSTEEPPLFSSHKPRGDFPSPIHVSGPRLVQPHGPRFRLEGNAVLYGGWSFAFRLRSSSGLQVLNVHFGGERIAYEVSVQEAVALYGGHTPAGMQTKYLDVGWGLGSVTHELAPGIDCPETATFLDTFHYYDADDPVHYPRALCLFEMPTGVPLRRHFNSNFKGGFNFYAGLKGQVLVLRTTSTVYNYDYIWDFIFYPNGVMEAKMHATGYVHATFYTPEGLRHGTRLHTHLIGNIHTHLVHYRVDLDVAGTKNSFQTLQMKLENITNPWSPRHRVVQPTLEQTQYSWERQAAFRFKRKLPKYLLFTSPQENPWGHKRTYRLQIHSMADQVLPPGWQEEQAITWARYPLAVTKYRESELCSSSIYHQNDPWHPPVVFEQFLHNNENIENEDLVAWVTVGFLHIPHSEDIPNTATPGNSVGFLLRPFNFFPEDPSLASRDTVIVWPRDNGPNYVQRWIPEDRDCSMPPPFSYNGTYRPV
- protocolNotes: Activity evaluation on recombinant human DAO (Amplex Red/HRP-coupled assay, 1 mM putrescine substrate)
- Assay type: biochemical
- conditionDescription: 1 mM putrescine, read-out: Inhibitory Activity (IC50, nM) DAO
- Experimental: The compounds according to the present technology were evaluated in terms of activity on recombinant human VAP-1 (R&D systems) by measuring the level of hydrogen peroxide in horseradish peroxidase (HRP)-coupled reaction using Amplex Red Hydrogen Peroxide Assay Kit (Molecular Probes, Invitrogen, USA). […] The inhibitory effect of the compounds was measured as a decrease (%) in the signal rate as compared to the control group without any inhibitor (only diluted DMSO). […]
Structures can show the parent of a compound that is named as a salt.
In plain terms, each number is the log10 of measured IC50 in nM.

In the examples that follow, each entry is paired with its recorded log10(IC50).
CCn1cc(-c2csc(Cn3cnn(CC(CN)=C(F)F)c3=O)c2)cn1 [Example 153, Trifluoroacetate] | 4.56
CN1C(=O)CCc2cc(-c3ccc(CCn4cnn(CC(CN)=C(F)F)c4=O)s3)ccc21 [Example 179, Trifluoroacetate] | 2.46
Cc1cc(-c2ccc(C(F)(F)F)nc2)cnc1-n1cnn(CC(CN)=C(F)F)c1=O [Example 70, Trifluoroacetate] | 3.18

Given NCC(Cn1ncn(-c2ccnc(-c3ccc4c(c3)OCO4)c2)c1=O)=C(F)F [Example 64, Trifluoroacetate] , state its recorded log10(IC50).
2.43

Given NCC(Cn1ncn(Cc2ccc(C#Cc3ccc(N4CCOCC4)nc3)s2)c1=O)=C(F)F [Example 163, Trifluoroacetate] , state its recorded log10(IC50).
3.92

Given Cc1cc(-c2ccc(-n3cnn(CC(CN)=C(F)F)c3=O)c(F)c2)cc2c1NC(=O)CC2 [Example 36, Trifluoroacetate] , state its recorded log10(IC50).
1.99

Given CC(=O)N1CCN(c2ccc(-c3ccc(Cn4cnn(CC(CN)=C(F)F)c4=O)s3)cc2)CC1 [Example 108, Trifluoroacetate] , state its recorded log10(IC50).
4.62

Given CC(C)n1cc(-c2ccc(Cn3cnn(CC(CN)=C(F)F)c3=O)s2)ccc1=O [Example 123, Trifluoroacetate] , state its recorded log10(IC50).
4.77

Given NCC(Cn1ncn(-c2ncc(-c3ccc(C(F)(F)F)nc3)cc2F)c1=O)=C(F)F [Example 84, Trifluoroacetate] , state its recorded log10(IC50).
0.85

Given NCC(Cn1ncn(Cc2ccc(-c3cccc(N4CCNCC4)c3)s2)c1=O)=C(F)F [Example 107, Ditrifluoroacetate] , state its recorded log10(IC50).
4.08

Given CN1C(=O)CCc2cc(-c3cccc(-n4cnn(CC(CN)=C(F)F)c4=O)n3)ccc21 [Example 52, Trifluoroacetate] , state its recorded log10(IC50).
2.48

* * *

Consider the following compounds and their measured IC50 readings.
- experimentalSystem: recombinant human MAO-B (monoamine oxidase-B) (Homo sapiens, UniProt P27338)
- Construct: purchased Sigma-Aldrich
- Sequence (P27338 whole entry): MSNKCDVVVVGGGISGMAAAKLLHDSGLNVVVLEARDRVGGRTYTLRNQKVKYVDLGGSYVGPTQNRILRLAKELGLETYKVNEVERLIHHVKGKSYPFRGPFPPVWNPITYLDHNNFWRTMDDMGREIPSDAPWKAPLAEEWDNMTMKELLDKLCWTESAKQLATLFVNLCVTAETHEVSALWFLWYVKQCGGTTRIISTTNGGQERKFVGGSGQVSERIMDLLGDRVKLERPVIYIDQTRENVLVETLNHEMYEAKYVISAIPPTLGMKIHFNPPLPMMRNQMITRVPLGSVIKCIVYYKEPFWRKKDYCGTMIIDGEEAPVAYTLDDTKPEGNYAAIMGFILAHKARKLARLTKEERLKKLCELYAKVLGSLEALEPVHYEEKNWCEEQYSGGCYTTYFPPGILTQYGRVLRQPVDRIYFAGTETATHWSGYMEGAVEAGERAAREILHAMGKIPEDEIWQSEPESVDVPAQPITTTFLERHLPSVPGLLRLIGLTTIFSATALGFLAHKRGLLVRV
- protocolNotes: Activity evaluation on recombinant human MAO-B (Amplex Red/HRP-coupled assay, 1 mM benzylamine substrate)
- Type: biochemical
- conditionDescription: 1 mM benzylamine, read-out: Inhibitory Activity (IC50, nM) MAO-B
Counter-ions that a name gives are not always drawn.
Your answer should be a plain number; it is taken to be in nM.

Cc1cc(-c2ccc(-n3cnn(CC(CN)=C(F)F)c3=O)cn2)cc2c1NC(=O)CC2 [Example 43, Trifluoroacetate] | 100

Provide value of IC50 for this record tested with recombinant human MAO-B (monoamine oxidase-B) (Homo sapiens, UniProt P27338): CN1C(=O)CCc2cc(-c3cccc(-n4cnn(CC(CN)=C(F)F)c4=O)n3)ccc21 [Example 52, Trifluoroacetate]
23000

Provide value of IC50 for this record tested with recombinant human MAO-B (monoamine oxidase-B) (Homo sapiens, UniProt P27338): NCC(Cn1ncn(-c2ccc(Br)cc2F)c1=O)=C(F)F [Example 5, Trifluoroacetate]
4900

Provide value of IC50 for this record tested with recombinant human MAO-B (monoamine oxidase-B) (Homo sapiens, UniProt P27338): CC(C)n1cc(-c2ccc(Cn3cnn(CC(CN)=C(F)F)c3=O)s2)ccc1=O [Example 123, Trifluoroacetate]
56000

Provide value of IC50 for this record tested with recombinant human MAO-B (monoamine oxidase-B) (Homo sapiens, UniProt P27338): CCn1cc(-c2ccc(-n3cnn(CC(CN)=C(F)F)c3=O)cn2)cn1 [Example 45, Trifluoroacetate]
410

Provide value of IC50 for this record tested with recombinant human MAO-B (monoamine oxidase-B) (Homo sapiens, UniProt P27338): NCC(Cn1ncn(-c2ccc(Br)c(F)c2)c1=O)=C(F)F [Example 4, Trifluoroacetate]
2300

Provide value of IC50 for this record tested with recombinant human MAO-B (monoamine oxidase-B) (Homo sapiens, UniProt P27338): NCC(Cn1ncn(Cc2ccc(-c3cccc(-c4cc[nH]n4)c3)s2)c1=O)=C(F)F [Example 110, Trifluoroacetate]
8700

Provide value of IC50 for this record tested with recombinant human MAO-B (monoamine oxidase-B) (Homo sapiens, UniProt P27338): Cn1cc(-c2ccc(Cn3cnn(CC(CN)=C(F)F)c3=O)s2)ccc1=O [Example 121, Trifluoroacetate]
40000

Provide value of IC50 for this record tested with recombinant human MAO-B (monoamine oxidase-B) (Homo sapiens, UniProt P27338): NCC(Cn1ncn(-c2ccc(-c3ccc(N4CCNCC4)cc3)nc2)c1=O)=C(F)F [Example 39, Ditrifluoroacetate]
46000

Provide value of IC50 for this record tested with recombinant human MAO-B (monoamine oxidase-B) (Homo sapiens, UniProt P27338): NCC(Cn1ncn(-c2cccc(-c3ccc4c(c3)OCO4)n2)c1=O)=C(F)F [Example 50, Trifluoroacetate]
13000

Provide value of IC50 for this record tested with recombinant human MAO-B (monoamine oxidase-B) (Homo sapiens, UniProt P27338): NCC(Cn1ncn(-c2cnc(-c3ccc(C(F)(F)F)nc3)cn2)c1=O)=C(F)F [Example 91, Trifluoroacetate]
200

Provide value of IC50 for this record tested with recombinant human MAO-B (monoamine oxidase-B) (Homo sapiens, UniProt P27338): CCn1cc(-c2ccc(-n3cnn(CC(CN)=C(F)F)c3=O)c(F)c2)cn1 [Example 37, Trifluoroacetate]
880

Provide value of IC50 for this record tested with recombinant human MAO-B (monoamine oxidase-B) (Homo sapiens, UniProt P27338): NCC(Cn1ncn(Cc2ccc(OCc3ccccc3)cc2)c1=O)=C(F)F [Example 96, Trifluoroacetate]
220
